# tested_system: D-amino-acid oxidase (Homo sapiens, UniProt P14920)
# Sequence (P14920 whole entry, looked up): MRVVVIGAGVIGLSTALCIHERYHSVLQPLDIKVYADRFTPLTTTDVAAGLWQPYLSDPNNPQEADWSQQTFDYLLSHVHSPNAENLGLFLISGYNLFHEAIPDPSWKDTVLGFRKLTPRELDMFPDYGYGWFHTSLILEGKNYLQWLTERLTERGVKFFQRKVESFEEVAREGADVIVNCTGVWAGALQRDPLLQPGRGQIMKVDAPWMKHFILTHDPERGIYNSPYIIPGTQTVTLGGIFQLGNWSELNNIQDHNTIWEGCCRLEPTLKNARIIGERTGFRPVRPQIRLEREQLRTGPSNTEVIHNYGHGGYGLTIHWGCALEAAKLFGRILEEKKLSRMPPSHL
# assay_notes: Inhibition of human DAAO at 20 uM using D-kynurenine as substrate relative to control
reported_endpoint: inhibition (%)

INSERT INTO results (smiles_structure, assay_result) VALUES
  ('O=C(O)CNC(=O)c1cc(NC(=O)c2ccc([N+](=O)[O-])[nH]2)c[nH]1', 33);

a. CC(=O)Nc1c[nH]c(C(=O)NCC(=O)O)c1
b. O=C(O)CNC(=O)c1cc(NC(=O)c2cc(Cl)c(Cl)[nH]2)c[nH]1
c. O=C(O)CNC(=O)c1cc(NC(=O)c2ccccn2)c[nH]1
Sort ascending by inhibition. Put the labels in the requested order and list them out.
c, a, b
